Source: patent US20240417410A1

Test system: AGS cells (KRAS G12D)
Assay: Cell viability assay (Cell Counting Kit-8, 3-day)
Format: cell-based, human
Details: Homo sapiens, 72 h, 72 hrs incubation
pIC50: −log10 of the molar value.
Collected pIC50 values appear next to each entry.

{"Molecule": "CO[C@@H](C)c1ncc(N2CCN(C3COC3)CC2)cc1-c1c2c3cc(cc4c3n1CCC4)-c1csc(n1)C[C@H](NC(=O)[C@H]1[C@H](C)[C@@H]1C)C(=O)N1CCC[C@H](N1)C(=O)OCC(C)(C)C2 (atropisomer, axis not shown; (M))", "pIC50": 8.89}
{"Molecule": "CO[C@@H](C)c1ncc(N2CCN(C)CC2)cc1-c1c2c3cc(cc4c3n1CCC4)-c1csc(n1)C[C@H](NC(=O)[C@H]1C[C@@H]1c1ccccc1F)C(=O)N1CCC[C@H](N1)C(=O)OCC(C)(C)C2", "pIC50": 7.94}
{"Molecule": "CO[C@@H](C)c1ncc(N2CCN(C)CC2)cc1-c1c2c3cc(cc4c3n1CCC4)-c1csc(n1)C[C@H](NC(=O)[C@H]1CC[C@H](c3nnnn3C)CC1)C(=O)N1CCC[C@H](N1)C(=O)OCC(C)(C)C2 (atropisomer, axis not shown; (M))", "pIC50": 7.01}
{"Molecule": "CO[C@@H](C)c1ncc(N2CCN(C)CC2)cc1-c1c2c3cc(cc4c3n1CC(F)(F)C4)-c1csc(n1)C[C@H](NC(=O)[C@H]1C[C@@H]1c1cncnc1)C(=O)N1CCC[C@H](N1)C(=O)OCC(C)(C)C2 (atropisomer, axis not shown; (M))", "pIC50": 8.06}
{"Molecule": "CO[C@@H](C)c1ncc(N2CCOCC2)cc1-c1c2c3cc(cc4c3n1CCCC4)-c1csc(n1)C[C@H](NC(=O)[C@H]1[C@H](C)[C@@H]1C)C(=O)N1CCC[C@H](N1)C(=O)OCC(C)(C)C2", "pIC50": 6.12}
